Measured EC50 of individual entries
Measured target: hKOR (OPRK1) (Homo sapiens, UniProt P41145)
Construct: 3HA (triple haemagglutinin tag); expressed in transfected cells
Sequence (P41145 whole entry): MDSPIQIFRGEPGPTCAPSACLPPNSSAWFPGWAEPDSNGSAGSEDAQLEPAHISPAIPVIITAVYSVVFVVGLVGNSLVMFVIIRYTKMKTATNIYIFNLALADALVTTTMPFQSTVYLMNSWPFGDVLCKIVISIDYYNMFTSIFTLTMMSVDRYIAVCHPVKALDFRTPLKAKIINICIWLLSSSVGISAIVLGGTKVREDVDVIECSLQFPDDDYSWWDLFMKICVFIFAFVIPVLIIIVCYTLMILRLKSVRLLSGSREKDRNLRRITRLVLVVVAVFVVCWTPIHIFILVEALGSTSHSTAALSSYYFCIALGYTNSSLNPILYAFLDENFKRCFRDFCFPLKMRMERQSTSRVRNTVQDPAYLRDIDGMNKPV
Measurement protocol: cell-based
Measurement conditions: mean EC50 of inhibition of forskolin-stimulated cAMP accumulation via KOR
Your answer should be a plain number; it is taken to be in nM.

Solved cases below.
{"columns": ["Compound", "Measured target", "Units text", "EC50"],
 "data": [
  ["COC(=O)C1CC(OC(C)=O)C(=O)C2C3CC(c4ccccc4)CC(=NO)C3CCC12C (stereo not drawn)", "hKOR (OPRK1) (Homo sapiens, UniProt P41145)", "nM", 0.4],
  ["COC(=O)C1CC(OC(C)=O)C(=O)C2C3CC(c4ccoc4)CC(O)C3CCC12C (stereo not drawn) [41a]", "hKOR (OPRK1) (Homo sapiens, UniProt P41145)", "nM", 5.1],
  ["COC(=O)C1CC(OC(C)=O)C(=O)C2C3CC(c4ccoc4)CC(=NO)C3CCC12C (stereo not drawn)", "hKOR (OPRK1) (Homo sapiens, UniProt P41145)", "nM", 0.4],
  ["COC(=O)[C@@H]1C[C@H](OC(C)=O)C(=O)[C@@H]2[C@H]3C[C@@H](c4cccc(C)c4)CC(=O)[C@@H]3CC[C@]21C", "hKOR (OPRK1) (Homo sapiens, UniProt P41145)", "nM", 15],
  ["COC(=O)[C@@H]1C[C@H](OC(C)=O)C(=O)[C@@H]2[C@H]3C[C@@H](C4=CCCCC4)CC(=O)[C@@H]3CC[C@]21C", "hKOR (OPRK1) (Homo sapiens, UniProt P41145)", "nM", 0.3]
]}

Please indicate EC50 recorded for C#CC1(O)CC(c2ccccc2)CC2C1CCC1(C)C(C(=O)OC)CC(OC(C)=O)C(=O)C21 (stereo not drawn) [40a]
6.9

* * *

Measured target: hKOR (Homo sapiens, UniProt P41145)
Construct: β-galactosidase enzyme fragment for EFC (ProLink tag of the PathHunter system; name and presence on the receptor from own knowledge); host or cells: U2OS-β-arrestin2-EFC-hKOR (PathHunter) cells
Sequence (P41145 whole entry, the tested form may be a part): as the sequence (P41145 whole entry) above
Format: cell-based
Assay endpoint: ΔΔLogτ/KA (cAMP/βarr2)
Respond with the number and no other words.

# assay system hKOR (Homo sapiens, UniProt P41145): give ΔΔLogτ/KA (cAMP/βarr2) of `COC(=O)[C@@H]1C[C@H](OC(C)=O)C(=O)[C@@H]2[C@H]3C[C@@H](c4ccccc4)CC(=O)N[C@@H]3CC[C@]21C`
0.182

* * *

Measured Emax of individual entries
Measured target: hKOR (OPRK1) (Homo sapiens)
Construct: 3HA (triple haemagglutinin tag); expressed in transfected cells
Measurement protocol: cell-based
Measurement conditions: CHO, read-out: cAMP Emax
Your answer should be a plain number; it is taken to be in %.

# assay system hKOR (OPRK1) (Homo sapiens): give Emax of C#CC1(O)CC(c2ccccc2)CC2C1CCC1(C)C(C(=O)OC)CC(OC(C)=O)C(=O)C21 (stereo not drawn) [40b]
104

# assay system hKOR (OPRK1) (Homo sapiens): give Emax of `COC(=O)[C@@H]1C[C@H](OC(C)=O)C(=O)[C@@H]2[C@H]3C[C@@H](c4coc5ccccc45)CC(=O)[C@@H]3CC[C@]21C`
104

# assay system hKOR (OPRK1) (Homo sapiens): give Emax of `COC(=O)[C@@H]1C[C@H](OC(C)=O)C(=O)[C@@H]2[C@H]3C[C@@H](c4ccsc4)CC(=O)[C@@H]3CC[C@]21C`
101

* * *

Measured target: hKOR (Homo sapiens)
Construct: β-galactosidase enzyme fragment for EFC (ProLink tag of the PathHunter system; name and presence on the receptor from own knowledge); host or cells: U2OS-β-arrestin2-EFC-hKOR (PathHunter) cells
Type: cell-based
Classes are defined on Bias Factor with ranges lower level (below 0.5), middle level (0.5 to below 2), upper level (2 or more)

{"columns": ["Compound", "Measured target", "Label value"],
 "data": [
  ["COC(=O)[C@@H]1C[C@H](OC(C)=O)C(=O)[C@@H]2[C@H]3C[C@@H](c4cccc(O)c4)CC(=O)[C@@H]3CC[C@]21C [22a]", "hKOR (Homo sapiens)", "middle level"]
]}

Into which category would you place `COC(=O)[C@@H]1C[C@H](OC(C)=O)C(=O)[C@@H]2[C@H]3C[C@@H](c4ccsc4)CC(=O)[C@@H]3CC[C@]21C` ?
middle level

Into which category would you place `COC(=O)[C@@H]1C[C@H](OC(C)=O)C(=O)[C@@H]2[C@H]3C[C@@H](c4coc5ccccc45)CC(=O)[C@@H]3CC[C@]21C` ?
middle level

Into which category would you place COC(=O)C1CC(OC(C)=O)C(=O)C2C3CC(c4ccoc4)CC(O)C3CCC12C (stereo not drawn) [41b] ?
upper level

Into which category would you place COC(=O)C1CC(OC(C)=O)C(=O)C2C3CC(c4ccccc4)CC(=NOC(C)=O)C3CCC12C (stereo not drawn) ?
upper level

Into which category would you place COC(=O)C1CC(OC(C)=O)C(=O)C2C3CC(c4ccoc4)CC(O)C3CCC12C (stereo not drawn) [41a] ?
middle level

Into which category would you place `COC(=O)[C@@H]1C[C@H](OC(C)=O)C(=O)[C@@H]2[C@H]3C[C@@H](c4ccncc4)CC(=O)[C@@H]3CC[C@]21C` ?
lower level

Into which category would you place `COC(=O)[C@@H]1C[C@H](OC(C)=O)C(=O)[C@@H]2[C@H]3C[C@H](c4ccoc4)CC(=O)[C@@H]3CC[C@]21C` ?
lower level

Into which category would you place `COC(=O)[C@@H]1C[C@H](OC(C)=O)C(=O)[C@@H]2[C@H]3C[C@@H](c4cccc(C)c4)CC(=O)[C@@H]3CC[C@]21C` ?
middle level

Into which category would you place `COC(=O)[C@@H]1C[C@H](OC(C)=O)C(=O)[C@@H]2[C@H]3C[C@@H](c4cccnc4)CC(=O)[C@@H]3CC[C@]21C` ?
lower level

* * *

Measured pEC50 of individual entries
Measured target: hKOR (Homo sapiens, UniProt P41145)
Construct: β-galactosidase enzyme fragment for EFC (ProLink tag of the PathHunter system; name and presence on the receptor from own knowledge)
Measurement protocol: cell-based
Measurement conditions: βarrestin2 pEC50
Expect pEC50 as a plain number equal to -log10 of the molar concentration.

{"columns": ["Molecule", "pEC50"],
 "data": [
  ["COC(=O)[C@@H]1C[C@H](OC(C)=O)C(=O)[C@@H]2[C@H]3C[C@@H](c4ccncc4)CC(=O)[C@@H]3CC[C@]21C", 5.48]
]}

Please indicate pEC50 recorded for `COC(=O)[C@@H]1C[C@H](OC(C)=O)C(=O)[C@@H]2[C@H]3C[C@@H](c4ccccc4)CC(=O)N[C@@H]3CC[C@]21C`
5.74

Please indicate pEC50 recorded for `COC(=O)[C@@H]1C[C@H](OC(C)=O)C(=O)[C@@H]2[C@H]3C[C@@H](c4c[nH]c5ccccc45)CC(=O)[C@@H]3CC[C@]21C`
5.69

* * *

Measured target: hKOR (Homo sapiens, UniProt P41145)
Construct: β-galactosidase enzyme fragment for EFC (ProLink tag of the PathHunter system; name and presence on the receptor from own knowledge); host or cells: U2OS-β-arrestin2-EFC-hKOR (PathHunter) cells
Format: cell-based
Assay endpoint: ΔΔLogτ/KA (cAMP/βarr2)

{"columns": ["Molecule", "Measured target", "ΔΔLogτ/KA (cAMP/βarr2)"],
 "data": [
  ["COC(=O)C1CC(OC(C)=O)C(=O)C2C3CC(c4ccccc4)CC(=NOC(C)=O)C3CCC12C (stereo not drawn)", "hKOR (Homo sapiens, UniProt P41145)", 0.184],
  ["COC(=O)[C@@H]1C[C@H](OC(C)=O)C(=O)[C@@H]2[C@H]3C[C@@H](c4cccc(O)c4)CC(=O)[C@@H]3CC[C@]21C [22a]", "hKOR (Homo sapiens, UniProt P41145)", 1.397],
  ["COC(=O)[C@@H]1C[C@H](OC(C)=O)C(=O)[C@@H]2[C@H]3C[C@@H](Sc4ccccc4)CC(=O)[C@@H]3CC[C@]21C", "hKOR (Homo sapiens, UniProt P41145)", 1.946],
  ["COC(=O)[C@@H]1C[C@H](OC(C)=O)C(=O)[C@@H]2[C@H]3C[C@H](c4ccccc4)CC(=O)[C@@H]3CC[C@]21C [24b]", "hKOR (Homo sapiens, UniProt P41145)", 3.153],
  ["COC(=O)[C@@H]1C[C@H](OC(C)=O)C(=O)[C@@H]2[C@H]3C[C@@H](c4c[nH]c5ccccc45)CC(=O)[C@@H]3CC[C@]21C", "hKOR (Homo sapiens, UniProt P41145)", 0.252],
  ["COC(=O)[C@@H]1C[C@H](OC(C)=O)C(=O)[C@@H]2[C@H]3C[C@@H](c4cccnc4)CC(=O)[C@@H]3CC[C@]21C", "hKOR (Homo sapiens, UniProt P41145)", 5.896],
  ["COC(=O)C1CC(OC(C)=O)C(=O)C2C3CC(c4ccoc4)CC(O)C3CCC12C (stereo not drawn) [41a]", "hKOR (Homo sapiens, UniProt P41145)", 0.754],
  ["COC(=O)[C@@H]1C[C@H](OC(C)=O)C(=O)[C@@H]2[C@H]3C[C@@H](c4coc5ccccc45)CC(=O)[C@@H]3CC[C@]21C", "hKOR (Homo sapiens, UniProt P41145)", 0.536],
  ["COC(=O)[C@@H]1C[C@H](OC(C)=O)C(=O)[C@@H]2[C@H]3C[C@@H](c4ccccc4)CC(=O)[C@@H]3CC[C@]21C [24a]", "hKOR (Homo sapiens, UniProt P41145)", 2.554],
  ["CON=C1CC(c2ccccc2)CC2C1CCC1(C)C(C(=O)OC)CC(OC(C)=O)C(=O)C21 (stereo not drawn)", "hKOR (Homo sapiens, UniProt P41145)", 0.439]
]}

Please indicate ΔΔLogτ/KA (cAMP/βarr2) recorded for `COC(=O)[C@@H]1C[C@H](OC(C)=O)C(=O)[C@@H]2[C@H]3C[C@@H](c4ccc(C)cc4)CC(=O)[C@@H]3CC[C@]21C`
0.258

Please indicate ΔΔLogτ/KA (cAMP/βarr2) recorded for C#CC1(O)CC(c2ccccc2)CC2C1CCC1(C)C(C(=O)OC)CC(OC(C)=O)C(=O)C21 (stereo not drawn) [40b]
0.134
